Tested on: TRKA
Construct: gene NTRK1
CONDITION_PARAMETERS: concentration: 1 μM, replicates: in singlicate; n = 1;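 note: KINOMEscan kinase panel screen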

>  <COMPOUND>
CCNc1nccc(-c2c(-c3ccc(F)cc3)ncn2C2CCN(C)CC2)n1

>  <MEASUREMENT_TARGET>
TRKA

>  <%Inh / %>
0

$$$$
>  <COMPOUND>
Cl.Cl.NCC(NC(=O)c1cc(-c2cccnc2)c(-c2ccnc3[nH]ccc23)s1)c1ccccc1 (stereo not drawn) [GSK1323434]

>  <MEASUREMENT_TARGET>
TRKA

>  <%Inh / %>
31

$$$$
>  <COMPOUND>
CNc1nccc(-c2ccc3c(N)n[nH]c3c2)n1 [GSK2206003]

>  <MEASUREMENT_TARGET>
TRKA

>  <%Inh / %>
52

$$$$
>  <COMPOUND>
NCCC(NC(=O)c1cc(Br)c(-c2ccnc3[nH]ccc23)s1)c1ccccc1.O=C(O)C(F)(F)F.O=C(O)C(F)(F)F (stereo not drawn) [GSK1307810]

>  <MEASUREMENT_TARGET>
TRKA

>  <%Inh / %>
91.4

$$$$
>  <COMPOUND>
CCn1cnc2c(NCc3ccccc3)ncnc21 [SKF-96418]

>  <MEASUREMENT_TARGET>
TRKA

>  <%Inh / %>
0

$$$$
>  <COMPOUND>
Cc1ccc(-c2ccc3occ(-c4ccc(S(C)=O)cc4)c3c2)nn1 (stereo not drawn)

>  <MEASUREMENT_TARGET>
TRKA

>  <%Inh / %>
0

$$$$
>  <COMPOUND>
Fc1cc(Cl)ccc1Nc1ccnc2cc(-c3ccc(CN4CCOCC4)o3)ccc12 [GW560109]

>  <MEASUREMENT_TARGET>
TRKA

>  <%Inh / %>
42

$$$$
>  <COMPOUND>
CN(C)c1ncnc2nc[nH]c12 [SKF-31736]

>  <MEASUREMENT_TARGET>
TRKA

>  <%Inh / %>
0

$$$$
>  <COMPOUND>
Cl.Cl.NC(CNC(=O)c1cc(Br)c(-c2ccnc3[nH]ccc23)s1)c1ccccc1 (stereo not drawn) [GSK1322949]

>  <MEASUREMENT_TARGET>
TRKA

>  <%Inh / %>
100

$$$$

* * *

System: PKN2
CONDITION_PARAMETERS: concentration: 1 μM, replicates: in singlicate; n = 1
Recorded %Inh by entry
PROPERTY_NAME: %Inh (%)

>  <MOLECULE>
O=C(Nc1c(F)cccc1F)c1cc(C(=O)c2ccccc2F)c[nH]1 [GSK1326180]

>  <OBSERVED_VALUE>
0

$$$$
>  <MOLECULE>
Nc1ncnc2scc(-c3ccc(NC(=O)Cc4cc(F)ccc4F)cc3)c12.O=C(O)C(F)(F)F [SB-731254-M]

>  <OBSERVED_VALUE>
26

$$$$
>  <MOLECULE>
Cc1cc(-c2ccnc(Nc3cccc(C#N)c3)n2)cc(C)c1O [GSK1440913]

>  <OBSERVED_VALUE>
14

$$$$
>  <MOLECULE>
CCn1cnc2c(NCc3ccccc3)ncnc21 [SKF-96418]

>  <OBSERVED_VALUE>
0

$$$$
>  <MOLECULE>
CN(C)CCNS(=O)(=O)c1ccc(-c2ccnc3[nH]ccc23)cc1 [GSK977620]

>  <OBSERVED_VALUE>
56

$$$$
>  <MOLECULE>
CN(c1ccc(F)c(NC(=O)c2cccc(OC(C)(C)C#N)c2Cl)c1)c1ccc2nc(NC(=O)C3CC3)sc2n1

>  <OBSERVED_VALUE>
0

$$$$
>  <MOLECULE>
Cc1ccc(O)cc1Nc1ccnc2ccc(C(C)(C)C)cc12 [GW856805]

>  <OBSERVED_VALUE>
14

$$$$
>  <MOLECULE>
CSc1ccc(NC2=C(c3ccc(Cl)cc3)C(=O)NC2=O)cc1 [SB-317658]

>  <OBSERVED_VALUE>
9

$$$$
>  <MOLECULE>
Cc1ccc(O)cc1Nc1ccnc2cc(-c3ccc(CN4CCCCC4)o3)ccc12 [GW557777]

>  <OBSERVED_VALUE>
0

$$$$

* * *

System: TGFBR1
CONDITION_PARAMETERS: concentration: 1 μM, replicates: in singlicate; n = 1
PROPERTY_NAME: %Inh (%)

>  <COMPOUND>
O=C(Nc1n[nH]c2nc(-c3ccccc3O)ccc12)C1CC1

>  <MEASUREMENT_TARGET>
TGFBR1

>  <UNITS_SYMBOL>
%

>  <OBSERVED_VALUE>
0

$$$$
>  <COMPOUND>
O=C(Nc1n[nH]c2nc(-c3cccc(O)c3)ccc12)C1CC1

>  <MEASUREMENT_TARGET>
TGFBR1

>  <UNITS_SYMBOL>
%

>  <OBSERVED_VALUE>
4

$$$$
>  <COMPOUND>
COc1cc(Nc2nccc(N3CCC(NS(=O)(=O)c4ccc(NC(C)=O)cc4)CC3)n2)cc(OC)c1OC

>  <MEASUREMENT_TARGET>
TGFBR1

>  <UNITS_SYMBOL>
%

>  <OBSERVED_VALUE>
61

$$$$
>  <COMPOUND>
O=C(O)C(F)(F)F.O=c1[nH]ccc2nc(N[C@@H]3CCNC3)nc(Nc3cc(Cl)cc(Cl)c3)c12

>  <MEASUREMENT_TARGET>
TGFBR1

>  <UNITS_SYMBOL>
%

>  <OBSERVED_VALUE>
25

$$$$
>  <COMPOUND>
Cc1ccc(O)cc1Nc1ccnc2cc(-c3ccc(CN4CCCCC4)o3)ccc12

>  <MEASUREMENT_TARGET>
TGFBR1

>  <UNITS_SYMBOL>
%

>  <OBSERVED_VALUE>
47

$$$$
>  <COMPOUND>
CCOc1nccc(-c2c(-c3ccc(F)cc3)ncn2C2CCNCC2)n1

>  <MEASUREMENT_TARGET>
TGFBR1

>  <UNITS_SYMBOL>
%

>  <OBSERVED_VALUE>
19

$$$$
>  <COMPOUND>
Cc1ccc(Nc2ccnc(Nc3ccc(C)c(F)c3)n2)cc1O.Cl

>  <MEASUREMENT_TARGET>
TGFBR1

>  <UNITS_SYMBOL>
%

>  <OBSERVED_VALUE>
0

$$$$
>  <COMPOUND>
Cc1cccc(Nc2nc(N[C@H]3CCCC[C@H]3N)ncc2C(N)=O)c1.Cl

>  <MEASUREMENT_TARGET>
TGFBR1

>  <UNITS_SYMBOL>
%

>  <OBSERVED_VALUE>
0

$$$$
>  <COMPOUND>
COc1ccc(C2=C(Nc3cccc(O)c3)C(=O)NC2=O)cc1

>  <MEASUREMENT_TARGET>
TGFBR1

>  <UNITS_SYMBOL>
%

>  <OBSERVED_VALUE>
20

$$$$

* * *

System: p38-alpha
Construct: gene MAPK14
CONDITION_PARAMETERS: concentration: 1 μM, replicates: in singlicate; n = 1

>  <COMPOUND>
CN1CCN(Cc2ccc(NC(=O)Nc3ccc(N(C)c4ccnc(Nc5ccc(CS(C)(=O)=O)cc5)n4)cc3)cc2)CC1.Cl [GW827654]

>  <%Inh / %>
0

$$$$
>  <COMPOUND>
Cl.Cl.NCC(NC(=O)c1cc(-c2cccnc2)c(-c2ccnc3[nH]ccc23)s1)c1ccccc1 (centres unmarked) [GSK1323434]

>  <%Inh / %>
31

$$$$
>  <COMPOUND>
O=C(Nc1n[nH]c2cc(-c3cccs3)ccc12)C1CC1 [SB-731284]

>  <%Inh / %>
0

$$$$
>  <COMPOUND>
Cl.N#CCc1ccc(Nc2nccc(Nc3ccc(Oc4ccccc4)cc3)n2)cc1 [GW639905]

>  <%Inh / %>
0

$$$$
>  <COMPOUND>
Cc1ccccc1CC(=O)N1CCc2cc(-c3cn(C)c4ncnc(N)c34)ccc21 [GSK2603346]

>  <%Inh / %>
0

$$$$
>  <COMPOUND>
NCCC(NC(=O)c1cc(Br)c(-c2ccnc3[nH]ccc23)s1)c1ccccc1.O=C(O)C(F)(F)F.O=C(O)C(F)(F)F (centres unmarked) [GSK1307810]

>  <%Inh / %>
8

$$$$
>  <COMPOUND>
Cl.Cl.NC(CNC(=O)c1cc(Br)c(-c2ccnc3[nH]ccc23)s1)c1ccccc1 (centres unmarked) [GSK1322949]

>  <%Inh / %>
23

$$$$
>  <COMPOUND>
Nc1ncc(-c2cn[nH]c2)c2scc(-c3ccc4c(c3)CCN4C(=O)Cc3ccccc3)c12 [GSK2593067]

>  <%Inh / %>
0

$$$$

* * *

System: PAK1
CONDITION_PARAMETERS: concentration: 1 μM, replicates: in singlicate; n = 1
Friendly reminder: %Inh below 20% is true, at or above is false.

>  <MOLECULE>
Cl.N#CCc1ccc(Nc2nccc(Nc3ccc(Oc4ccccc4)cc3)n2)cc1

>  <CLASS>
true

$$$$
>  <MOLECULE>
Cc1cc(-c2ccnc(Nc3cccc(C#N)c3)n2)cc(C)c1O

>  <CLASS>
false

$$$$
>  <MOLECULE>
Cn1cc(-c2cnc(N)c3c(-c4ccc5c(c4)CCN5C(=O)Cc4ccccc4)csc23)cn1

>  <CLASS>
true

$$$$
>  <MOLECULE>
NCCC(NC(=O)c1cc(Br)c(-c2ccnc3[nH]ccc23)s1)c1ccccc1.O=C(O)C(F)(F)F.O=C(O)C(F)(F)F (centres unmarked)

>  <CLASS>
true

$$$$
>  <MOLECULE>
Fc1cc(Cl)ccc1Nc1ccnc2cc(-c3ccc(CN4CCOCC4)o3)ccc12

>  <CLASS>
true

$$$$
>  <MOLECULE>
Cc1ccc(NC(=O)c2cccc(N3CCCCC3)c2)cc1-c1ccc(C(=O)NCC2CC2)cc1

>  <CLASS>
true

$$$$
>  <MOLECULE>
O=C(Nc1c(F)cccc1F)c1cc(C(=O)c2ccccc2F)c[nH]1

>  <CLASS>
true

$$$$
>  <MOLECULE>
CCNc1nccc(-c2c(-c3ccc(F)cc3)ncn2C2CCN(C)CC2)n1

>  <CLASS>
true

$$$$
>  <MOLECULE>
Nc1cccc(-c2ccc3c(N)n[nH]c3c2)c1

>  <CLASS>
true

$$$$
>  <MOLECULE>
COc1ccc(C2=C(Nc3cccc(O)c3)C(=O)NC2=O)cc1

>  <CLASS>
true

$$$$
>  <MOLECULE>
Cc1ccc(O)cc1Nc1ccnc2cc(-c3ccc(CN4CCCCC4)o3)ccc12

>  <CLASS>
false

$$$$
>  <MOLECULE>
CSc1ccc(NC2=C(c3ccc(Cl)cc3)C(=O)NC2=O)cc1

>  <CLASS>
true

$$$$
>  <MOLECULE>
O=C(Nc1n[nH]c2cc(-c3cccs3)ccc12)C1CC1

>  <CLASS>
true

$$$$
>  <MOLECULE>
O=C(O)C(F)(F)F.O=c1[nH]ccc2nc(N[C@@H]3CCNC3)nc(Nc3ccc4c(c3)S(=O)(=O)CC4)c12

>  <CLASS>
false

$$$$
